Measured IC50 of individual entries
- Test system: MDA-MB-231 human breast cancer cells
- Measurement Notes: Cell proliferation assay (CellTiter-Glo, 72 hours treatment)
- Assay type: cell-based
- Condition Summary: Homo sapiens; MDA-MB-231 cells, 72 hours at 37° C., CellTiter-Glo; read-out: MDA-MB-231 cell proliferation assay (IC50)

[
  {
    "Compound": "COc1ccc([C@@]23Oc4cc(OC)ccc4[C@]2(NC(C)=O)[C@H](O)[C@H](C(=O)N(C)C)[C@H]3c2ccccc2)cc1 (racemic) [45F]",
    "IC50": "> 1000 nM"
  },
  {
    "Compound": "CCN(CC)C[C@H]1[C@@H](O)[C@@]2(O)c3c(cc(C#N)nc3OC)O[C@@]2(c2ccc(C#N)cc2)[C@@H]1c1ccccc1 (racemic) [159Fc]",
    "IC50": "< 100 nM"
  },
  {
    "Compound": "COc1cncc2c1[C@]1(O)[C@H](O)[C@H](CNCc3ccccc3)[C@@H](c3ccccc3)[C@]1(c1ccc(C#N)cc1)O2 (racemic) [77F]",
    "IC50": "< 100 nM"
  },
  {
    "Compound": "COc1cncc2c1[C@]1(O)[C@@H](CNCC(F)F)[C@H](CO)[C@@H](c3ccccc3)[C@]1(c1ccc(C#N)cc1)O2 (racemic) [182F]",
    "IC50": "< 100 nM"
  },
  {
    "Compound": "COc1cncc2c1[C@]1(O)[C@H](O)[C@H](CCN(C)C)[C@@H](c3ccccc3)[C@]1(c1ccc(C#N)cc1)O2 (racemic) [276F]",
    "IC50": "100 to 1000 nM"
  },
  {
    "Compound": "CN(C)C(=O)[C@H]1[C@@H](O)[C@@]2(O)c3ccncc3O[C@@]2(c2ccc(C#N)cc2)[C@@H]1c1ccccc1 (single isomer, unassigned) [95F]",
    "IC50": "100 to 1000 nM"
  }
]

----------
Entries and their IC50
- Tested on: MDA-MB-231 human breast cancer cells
- Measurement Notes: Cell proliferation assay (CellTiter-Glo, 72 hours treatment)
- Format: cell-based
- Condition Summary: Homo sapiens; MDA-MB-231 cells, 72 hours at 37° C., CellTiter-Glo; read-out: MDA-MB-231 cell proliferation assay (IC50)

[
  {
    "Compound": "CN(C)C[C@H]1[C@@H](O)[C@@]2(O)c3ncc(Cl)cc3O[C@@]2(c2ccc(C#N)cc2)[C@@H]1c1ccccc1 [104F]",
    "IC50": "0.1 to 1 µM"
  },
  {
    "Compound": "O[C@@H]1[C@H](Sc2ccccn2)[C@@H](c2ccccc2)[C@]2(c3ccc(Br)cc3)Oc3cc(Cl)cnc3[C@]12O (racemic) [160Fa]",
    "IC50": "0.1 to 1 µM"
  },
  {
    "Compound": "C#CC1(O)C(C(=O)N(C)C)[C@@H](c2ccccc2)[C@]2(c3ccc(Br)cc3)Oc3cc(Cl)cnc3[C@]12O (mixture of isomers) [190F]",
    "IC50": "0.1 to 1 µM"
  },
  {
    "Compound": "COc1cncc2c1[C@]1(O)[C@H](O)[C@H](CN3CC(F)(F)C3)[C@@H](c3ccccc3)[C@]1(c1ccc(C#N)cc1)O2 (single isomer, unassigned) [122F]",
    "IC50": "0.1 to 1 µM"
  },
  {
    "Compound": "COc1nc(Cl)cc2c1[C@]1(O)[C@H](O)[C@H](CN3CCN(C)CC3)[C@@H](c3ccccc3)[C@]1(c1ccc(C#N)cc1)O2 (single isomer, unassigned) [198Fa]",
    "IC50": "< 0.1 µM"
  },
  {
    "Compound": "N#Cc1ccc([C@@]23Oc4cc(Cl)cnc4[C@]2(O)[C@@H](CN)C[C@H]3c2ccccc2)cc1 (racemic) [175F]",
    "IC50": "< 0.1 µM"
  }
]

----------
- Tested on: MDA-MB-231 human breast cancer cells
- Measurement Notes: Cell proliferation assay (CellTiter-Glo, 72 hours treatment)
- Assay type: cell-based
- Condition Summary: Homo sapiens; MDA-MB-231 cells, 72 hours at 37° C., CellTiter-Glo; read-out: MDA-MB-231 cell proliferation assay (IC50)
pIC50: −log10 of the molar value.

[
  {
    "Compound": "COc1nccc2c1[C@]1(O)[C@H](O)[C@H](C(=O)N(C)C)[C@@H](c3ccccc3)[C@]1(c1ccc(C#N)cc1)O2 (racemic) [19F]",
    "pIC50": "6.00 to 7.00"
  },
  {
    "Compound": "CN(C)C(=O)[C@H]1[C@@H](O)[C@@]2(O)c3c(Cl)cncc3O[C@@]2(c2ccc(Br)cc2)[C@@H]1c1ccccc1 (racemic) [97F]",
    "pIC50": "6.00 to 7.00"
  },
  {
    "Compound": "CN(C)C(=O)[C@H]1[C@@H](O)[C@@]2(O)c3nc(C(F)(F)F)c(O)cc3O[C@@]2(c2ccc(C#N)cc2)[C@@H]1c1ccccc1 (racemic) [29F]",
    "pIC50": "< 6.00"
  },
  {
    "Compound": "COc1cncc2c1[C@]1(O)[C@@H](CN3CCOCC3)[C@H](CO)[C@@H](c3ccccc3)[C@]1(c1ccc(Br)cc1)O2 (racemic) [179F]",
    "pIC50": "> 7.00"
  },
  {
    "Compound": "COc1cncc2c1[C@]1(O)[C@H](O)[C@H](CN3CCOCC3)[C@@H](c3ccccc3)[C@]1(c1ccc(C#N)cc1)O2 (single isomer, unassigned) [110F]",
    "pIC50": "6.00 to 7.00"
  },
  {
    "Compound": "COc1cncc2c1[C@]1(O)[C@@H](CN)[C@H](CO)[C@@H](c3ccccc3)[C@]1(c1ccc(C#N)cc1)O2 (racemic) [171F]",
    "pIC50": "6.00 to 7.00"
  },
  {
    "Compound": "COC(=O)[C@@H]1[C@@H](c2ccccc2)[C@]2(c3ccc(C#N)cc3)Oc3cc(Cl)cnc3[C@]2(O)[C@H]1C#N (racemic) [50F]",
    "pIC50": "6.00 to 7.00"
  },
  {
    "Compound": "COc1cncc2c1[C@]1(O)[C@H](O)[C@H](C(=O)NCc3ccnn3C)[C@@H](c3ccccc3)[C@]1(c1ccc(Br)cc1)O2 (racemic) [241F]",
    "pIC50": "> 7.00"
  },
  {
    "Compound": "N#Cc1ccc([C@@]23Oc4cc(Cl)cnc4[C@]2(O)[C@H](O)[C@H](S(=O)(=O)c2ccccn2)[C@H]3c2ccccc2)cc1 (racemic) [164F]",
    "pIC50": "6.00 to 7.00"
  },
  {
    "Compound": "COc1cncc2c1C1(O)[C@H](O)[C@H](CNCc3cccnc3)[C@@H](c3ccccc3)[C@]1(c1ccc(C#N)cc1)O2 (mixture of isomers) [78F]",
    "pIC50": "6.00 to 7.00"
  },
  {
    "Compound": "COc1cncc2c1[C@]1(O)[C@H](O)[C@H](S(=O)(=O)N3CCOCC3)[C@@H](c3ccccc3)[C@]1(c1ccc(C#N)cc1)O2 (single isomer, unassigned) [126F]",
    "pIC50": "6.00 to 7.00"
  },
  {
    "Compound": "N#Cc1ccc([C@@]23Oc4cc(Cl)cnc4[C@]2(O)[C@@H](O)C[C@H]3c2ccccc2)cc1 (racemic) [131F]",
    "pIC50": "< 6.00"
  }
]

----------
- Tested on: MDA-MB-231 human breast cancer cells
- Measurement Notes: Cell proliferation assay (CellTiter-Glo, 72 hours treatment)
- Format: cell-based
- Condition Summary: Homo sapiens; MDA-MB-231 cells, 72 hours at 37° C., CellTiter-Glo; read-out: MDA-MB-231 cell proliferation assay (IC50)
pIC50: −log10 of the molar value.
Entries and their pIC50 values follow.

[
  {
    "Compound": "COc1nc(Cl)cc2c1[C@]1(O)[C@H](O)[C@H](CN)[C@@H](c3ccccc3)[C@]1(c1ccc(Br)cc1)O2 (racemic) [292F]",
    "pIC50": "> 7.00"
  },
  {
    "Compound": "COc1cncc2c1[C@]1(O)[C@H](O)[C@H](CN(C)CCO)[C@@H](c3ccccc3)[C@]1(c1ccc(C#N)cc1)O2 (racemic) [75F]",
    "pIC50": "6.00 to 7.00"
  },
  {
    "Compound": "COc1cncc2c1[C@]1(O)[C@H](O)[C@H](CN(C)Cc3cccnc3)[C@@H](c3ccccc3)[C@]1(c1ccc(C#N)cc1)O2 [278F]",
    "pIC50": "6.00 to 7.00"
  },
  {
    "Compound": "COc1nc(Cl)cc2c1[C@]1(O)[C@H](O)[C@H](CN(C)C)[C@@H](c3ccccc3)[C@]1(c1ccc(C(F)(F)F)cc1)O2 (racemic) [144F]",
    "pIC50": "> 7.00"
  },
  {
    "Compound": "COC(=O)C(C[C@H]1C(=O)[C@@]2(O)c3ncc(Cl)cc3O[C@@]2(c2ccc(Br)cc2)[C@@H]1c1ccccc1)C(=O)OC (racemic) [46F]",
    "pIC50": "< 6.00"
  },
  {
    "Compound": "COc1cncc2c1[C@]1(O)[C@@H]3OC(=O)N[C@@H]3[C@@H](c3ccccc3)[C@]1(c1ccc(C#N)cc1)O2 (single isomer, unassigned) [81F]",
    "pIC50": "> 7.00"
  }
]
